Kindly state change of melting temperature, mutant - wild type (higher = more stable) for each of the entries shown.
B1: P253G, Q93D82 (parent)
chain: MSTAIVTNVKHFGGMGSALRLSEAGHTVACHDESFKQKDELEAFAETYPQLKPMSEQEPAELIEAVTSAYGQVDVLVSNDIFAPEFQPIDKYAVEDYRGAVEALQIRPFALVNAVASQMKKRKSGHIIFITSATPFGPWKELSTYTSARAGACTLANALSKELGEYNIPVFAIGPNYLHSEDSPYFYPTEPWKTNPEHVAHVKKVTALQRLGTQKELGELVAFLASGSCDYLTGQVFWLAGGFPMIERWPGMPE

# Variants of: B1
# Measurement parameters: Rhizobium radiobacter; pH 7.7; Thermal; CD; Phosphate 5mM; structure 1PWX; whole UniProt chain shown
Provide a numeric answer, followed by its unit.

Lab book: change of melting temperature, mutant - wild type (higher = more stable) of P253G noted as -0.5 °C

The recorded change of melting temperature, mutant - wild type (higher = more stable) for K193L is 0 °C

For E42Q the variant record lists change of melting temperature, mutant - wild type (higher = more stable) as -1 °C

Entry A60Y , change of melting temperature, mutant - wild type (higher = more stable) reported as -0.5 °C

Query E85Y yields change of melting temperature, mutant - wild type (higher = more stable) of -0.5 °C

Entry S2K ; change of melting temperature, mutant - wild type (higher = more stable) = 1 °C

change of melting temperature, mutant - wild type (higher = more stable) recorded for this variant, T27L , is 0 °C

change of melting temperature, mutant - wild type (higher = more stable) for E141Q is -9 °C

Recorded result, F82W , change of melting temperature, mutant - wild type (higher = more stable): -6 °C

# variant E58N ; its change of melting temperature, mutant - wild type (higher = more stable) = 0 °C

Value of change of melting temperature, mutant - wild type (higher = more stable) reported for the variant T213D is -3 °C

The variant identified as D39K registered its change of melting temperature, mutant - wild type (higher = more stable) at 1.5 °C

Recorded change of melting temperature, mutant - wild type (higher = more stable) (variant R98L ): 0 °C

// V75I : change of melting temperature, mutant - wild type (higher = more stable) value = 0 °C

Form field change of melting temperature, mutant - wild type (higher = more stable), entry T27M : 0 °C

// recorded change of melting temperature, mutant - wild type (higher = more stable) for H26M : -0.5 °C

Please fill in: change of melting temperature, mutant - wild type (higher = more stable) reported for Q209H = -7 °C

Recorded result, K140S , change of melting temperature, mutant - wild type (higher = more stable): -2.5 °C

The measured change of melting temperature, mutant - wild type (higher = more stable) associated with T144I reads -8 °C

What the record says about E58Q : change of melting temperature, mutant - wild type (higher = more stable) is 2.5 °C

change of melting temperature, mutant - wild type (higher = more stable) for C229A is -4.5 °C

The measured change of melting temperature, mutant - wild type (higher = more stable) associated with E64K reads 0 °C
